# Tested On: human Mdm2 1–125 (Homo sapiens)
# Construct: GST (N); His6 (internal); TEV cleavage site ENLYFQG (internal); made in house; host or cells: Escherichia coli BL21 (DE3) Rosetta T1R
# Sequence (Q00987 with tags, fused parts or gaps): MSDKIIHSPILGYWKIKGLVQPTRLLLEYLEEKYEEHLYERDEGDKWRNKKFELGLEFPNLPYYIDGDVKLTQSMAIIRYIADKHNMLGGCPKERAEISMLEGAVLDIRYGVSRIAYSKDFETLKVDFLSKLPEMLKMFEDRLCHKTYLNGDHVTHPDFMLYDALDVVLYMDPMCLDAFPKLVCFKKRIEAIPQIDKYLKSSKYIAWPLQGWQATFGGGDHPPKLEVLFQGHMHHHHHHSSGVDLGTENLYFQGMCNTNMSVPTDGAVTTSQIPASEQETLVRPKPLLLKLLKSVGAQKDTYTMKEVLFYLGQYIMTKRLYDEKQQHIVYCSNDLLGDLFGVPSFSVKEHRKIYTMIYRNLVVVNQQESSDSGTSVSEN
# Assay Info: Mdm2 binding assay (competitive fluorescence anisotropy/polarization)
# Condition: Table 2; competitive fluorescence polarization; read-out: Mdm2 (nM), Mdm2 binding (Kd)
Bridge positions count the residues as written; N and C are the ends. Square brackets hold non-standard residues; d marks the D form. Peptide text beside a SMILES is read from it. Lys(N3) = [N-]=[N+]=NCCCC[C@H](N)C(=O)O; R8 = C=CCCCCCC[C@@](C)(N)C(=O)O; Cba = N[C@@H](CC1CCC1)C(=O)O; S5 = C=CCCC[C@](C)(N)C(=O)O; βAla = NCCC(=O)O
Property: Kd (nM)
Enter your answer as a number in nM; do not include the unit.

Below: 2 compounds and their reported Kd.
CC(=O)N[C@@H](CCCCN=[N+]=[N-])C(=O)NCCC(=O)N[C@@H](CC(C)C)C(=O)N[C@H](C(=O)N[C@@H](Cc1ccccc1)C(=O)N[C@]1(C)CCCCCCC=CCCC[C@@](C)(C(=O)N[C@@H](CO)C(=O)N[C@@H](C)C(=O)N[C@@H](C)C(N)=O)NC(=O)[C@H](CC2CCC2)NC(=O)[C@H](CCC(N)=O)N(C)C(=O)[C@H](C)NC(=O)[C@H](Cc2c[nH]c3ccccc23)NC(=O)[C@H](Cc2ccc(O)cc2)NC(=O)[C@H](CCC(=O)O)NC1=O)[C@@H](C)O    211
CC(=O)N[C@@H](CCCCN=[N+]=[N-])C(=O)NCCC(=O)NCC(=O)N[C@H](C(=O)N[C@@H](Cc1ccccc1)C(=O)N[C@]1(C)CCCCCCC=CCCC[C@@](C)(C(=O)N[C@@H](CO)C(=O)N[C@@H](C)C(=O)N[C@@H](C)C(N)=O)NC(=O)[C@H](CC2CCC2)NC(=O)[C@H](CCC(N)=O)NC(=O)[C@H](C)NC(=O)[C@H](Cc2c[nH]c3ccccc23)NC(=O)[C@H](Cc2ccc(O)cc2)NC(=O)[C@H](CCC(=O)O)NC1=O)[C@@H](C)O [Peptide L1G]    22.1

Here is another compound to look at.
Give recorded Kd. CC(=O)N[C@@H](CCCCN=[N+]=[N-])C(=O)NCCC(=O)NCC(=O)N[C@H](C(=O)N[C@@H](Cc1ccccc1)C(=O)N[C@]1(C)CCCCCCC=CCCC[C@@](C)(C(=O)N[C@@H](CO)C(=O)N[C@@H](C)C(=O)N[C@@H](C)C(N)=O)NC(=O)[C@H](CC2CCC2)NC(=O)[C@H](CCC(N)=O)NC(=O)CNC(=O)[C@H](Cc2c[nH]c3ccccc23)NC(=O)[C@H](Cc2ccc(O)cc2)NC(=O)CNC1=O)[C@@H](C)O [L1G, E5G, A8G] (Ac-[Lys(N3)][βAla]GTF[R8]GYWGQ[Cba][S5]SAA-NH2; staple 6-13) 49.8
